Each recorded value in this set is attributed to patent US20230263783A1.

system: C4-2 castrate resistant prostate cancer (CRPC) cells; experiment: Relative viability after drug dose matrix (CellTiter-Glo, Bliss Independence) in C4-2 cells; assay type: cell-based; conditions: each Plk1 inhibitor in combination with TH588; relative viability
Value Kind: effect of the combination of TH588 with a Plk1 inhibitor

| Molecule | Tested System | Reported |
| --- | --- | --- |
| CC[C@@H]1C(=O)N(C)c2cnc(Nc3ccc(C(=O)N[C@H]4CC[C@H](N5CCN(CC6CC6)CC5)CC4)cc3OC)nc2N1C(C)C [BI6727] | C4-2 castrate resistant prostate cancer (CRPC) cells | more than additive |
| CN1CCN(c2ccc(OC(F)(F)F)c(Nc3ncc4c(n3)-c3c(c(C(N)=O)nn3CCO)CC4)c2)CC1 [onvansertib] | C4-2 castrate resistant prostate cancer (CRPC) cells | more than additive |
| CC[C@@H]1C(=O)N(C)c2cnc(Nc3ccc(C(=O)NC4CCN(C)CC4)cc3OC)nc2N1C1CCCC1 [BI2536] | C4-2 castrate resistant prostate cancer (CRPC) cells | more than additive |
| C[C@@H](Oc1cc(-n2cnc3ccc(CN4CCN(C)CC4)cc32)sc1C(N)=O)c1ccccc1C(F)(F)F [GSK461364] | C4-2 castrate resistant prostate cancer (CRPC) cells | more than additive |
